molecules and their reported growth
- Test system: Klebsiella aerogenes DSM 30053
- procedure.text: growth (OD595) fold change vs plate DMSO controls (fold change (ratio)); higher = more growth
- measurement.conditions: incubation time: 27 h, anaerobic, 37 °C
Field format: numeric only.

CC(=O)Oc1cccc2c1C(=O)c1c(OC(C)=O)cc(C(=O)O)cc1C2=O [Diacerein] (20 µM) :: 0.96
Cc1onc(-c2ccccc2)c1C(=O)N[C@@H]1C(=O)N2[C@@H]1SC(C)(C)[C@@H]2C(=O)O [Oxacillin sodium] (20 µM) :: 1.01
c1cc2ccc3ccc4ccc5cccc6c(c1)c2c3c4c56 [Benzo-[g,h,i]perylene] (20 µM) :: 1.06
Cc1cc(O)c(C(=O)N[C@@H](C(=O)N[C@@H]2C(=O)N3C(C(=O)O)=C(CSc4nnnn4C)CS[C@H]23)c2ccc(O)cc2)cn1 [Cefpiramide] (20 µM) :: 0.61
CC[N+](CC)(CC)CCC(O)(c1ccccc1)C1CCCCC1 (configuration not stated) [Tridihexethyl chloride] (20 µM) :: 1.01

Query: Look up growth for this molecule: CC1=C(CC(=O)O)c2cc(F)ccc2/C1=C\c1ccc([S+](C)[O-])cc1 (configuration not stated) [Sulindac] (20 µM)
Result: 1.02

Query: growth; subject: Cc1onc(-c2c(F)cccc2Cl)c1C(=O)N[C@@H]1C(=O)N2[C@@H]1SC(C)(C)[C@@H]2C(=O)O [Flucloxacillin sodium] (20 µM)
Result: 0.993
